Hey, just so you know, these numbers are from patent US7524840B2.

Molecular target: Cyclin E/CDK2 (Homo sapiens)
Assay: CDK2 Flash Plate Assay (Rb phosphorylation, 33P-ATP)
Property: IC50; scope: individual molecules
// note: answer is a bare numeric in nM

Example molecules with recorded IC50:
[[record]]
mol = "COc1cc2c(cc1C#N)C(c1ccccc1Cl)=Nc1c(n[nH]c1C)N2"
reported_result = 184

[[record]]
mol = "COCCOc1cc2c(cc1F)C(c1ccccc1Cl)=Nc1c(n[nH]c1C)N2"
reported_result = 395


Next item in the queue.
Cyclin E/CDK2 (Homo sapiens) IC50 of Cc1[nH]nc2c1N=C(c1ccccc1Cl)c1cc(F)c(OC(C)C)cc1N2 is 247

* * *

System: VEGF-stimulated HUVEC
Test: VEGF-stimulated HUVEC proliferation assay (BrdU)
Assay type: cell-based
Conditions: Homo sapiens, BrdU labeling, VEGF 20 ng per mL, 24 hour exposure, read-out: Antiproliferative Activity VEGF-stimulated HUVEC Assay IC50
Property: pIC50; scope: individual compounds
Scale explanation: pIC50 corresponds to minus log10 of a concentration expressed in moles per litre.

[[record]]
compound = "Cc1cc2c(cc1C)C(c1ccccc1Cl)=Nc1c(n[nH]c1C)N2 [IVw]"
reported_result = 7.66


VEGF-stimulated HUVEC pIC50 of COc1cc2c(cc1C)C(c1ccccc1Cl)=Nc1c(n[nH]c1C)N2 [IVz] is 7.92

VEGF-stimulated HUVEC pIC50 of COc1cc2c(cc1Cl)Nc1n[nH]c(C)c1N=C2c1ccccc1Cl [IVy] is 6.76

VEGF-stimulated HUVEC pIC50 of COc1cc2c(cc1F)C(c1ccccc1Cl)=Nc1c(n[nH]c1C)N2 [IVa] is 7.64

* * *

readout name: melting point

Example compounds with recorded melting point:
[[record]]
mol = "COc1cc2c(cc1Br)C(c1ccccc1Cl)=Nc1c(n[nH]c1C)N2"
readout_name = "melting point"
reported_result = "210 to 211 °C"

[[record]]
mol = "COc1cc2c(cc1C)C(c1ccccc1Cl)=Nc1c[nH]nc1N2"
readout_name = "melting point"
reported_result = "275 to 276 °C"

[[record]]
mol = "COc1cc2c(cc1C#N)C(c1ccccc1Cl)=Nc1c[nH]nc1N2"
readout_name = "melting point"
reported_result = "288 to 290 °C"


Next item in the queue.
For record COc1cc2c(cc1F)C(c1ccccc1Cl)=Nc1c[nH]nc1N2 the listed melting point is 242 to 243 °C

* * *

Target: KDR (Homo sapiens)
Construct: EEE tag
Sequence (P35968 20-1356, species assumed): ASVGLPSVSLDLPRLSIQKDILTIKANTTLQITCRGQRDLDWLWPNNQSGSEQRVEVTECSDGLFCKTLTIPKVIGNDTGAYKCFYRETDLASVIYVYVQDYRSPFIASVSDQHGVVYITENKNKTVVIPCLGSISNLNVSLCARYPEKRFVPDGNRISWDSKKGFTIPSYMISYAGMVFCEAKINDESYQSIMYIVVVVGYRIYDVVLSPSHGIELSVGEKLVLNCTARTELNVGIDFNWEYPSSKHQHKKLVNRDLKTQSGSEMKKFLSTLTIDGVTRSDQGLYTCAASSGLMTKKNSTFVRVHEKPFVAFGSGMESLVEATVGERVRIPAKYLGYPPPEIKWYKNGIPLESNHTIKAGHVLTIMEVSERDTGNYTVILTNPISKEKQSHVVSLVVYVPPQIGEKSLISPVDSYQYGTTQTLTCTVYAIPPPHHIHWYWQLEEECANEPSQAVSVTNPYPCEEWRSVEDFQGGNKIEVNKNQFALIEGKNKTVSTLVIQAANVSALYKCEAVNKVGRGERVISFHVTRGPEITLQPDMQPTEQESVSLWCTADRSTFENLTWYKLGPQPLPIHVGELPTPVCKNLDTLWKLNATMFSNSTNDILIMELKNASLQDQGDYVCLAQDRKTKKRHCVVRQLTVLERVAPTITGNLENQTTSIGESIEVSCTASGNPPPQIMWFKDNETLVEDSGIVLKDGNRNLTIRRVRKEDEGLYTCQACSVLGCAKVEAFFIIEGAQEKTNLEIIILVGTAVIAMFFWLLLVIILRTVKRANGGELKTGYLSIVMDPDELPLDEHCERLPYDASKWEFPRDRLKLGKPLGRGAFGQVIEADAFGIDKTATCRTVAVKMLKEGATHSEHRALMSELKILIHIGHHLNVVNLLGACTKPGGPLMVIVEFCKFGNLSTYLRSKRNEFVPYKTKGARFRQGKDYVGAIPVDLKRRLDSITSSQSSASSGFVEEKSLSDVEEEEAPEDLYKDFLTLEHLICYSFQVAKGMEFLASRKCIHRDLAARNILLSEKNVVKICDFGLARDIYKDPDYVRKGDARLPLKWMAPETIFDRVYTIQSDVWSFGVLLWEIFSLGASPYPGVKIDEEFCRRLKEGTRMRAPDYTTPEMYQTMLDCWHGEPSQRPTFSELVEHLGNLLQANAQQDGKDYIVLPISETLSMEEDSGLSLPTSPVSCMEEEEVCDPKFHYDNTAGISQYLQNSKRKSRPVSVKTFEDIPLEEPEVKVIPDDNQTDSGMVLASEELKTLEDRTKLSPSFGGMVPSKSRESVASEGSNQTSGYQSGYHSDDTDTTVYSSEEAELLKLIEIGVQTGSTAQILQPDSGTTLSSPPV
Assay: KDR kinase HTRF assay
Type: biochemical
Conditions: 1 nM activated KDR, 0.3 mM ATP, 37° C. for 30 minutes; read-out: Inhibition of KDR IC50
readout name: pIC50
Scale explanation: pIC50 corresponds to minus log10 of a concentration expressed in moles per litre.

For record COCCOc1cc2c(cc1OC)Nc1n[nH]c(C)c1N=C2c1ccccc1Cl [IVkk] the listed pIC50 is 7.62

For record COc1cc2c(cc1C(N)=O)C(c1ccccc1Cl)=Nc1c(n[nH]c1C)N2 [IVc] the listed pIC50 is 7.66

For record Cc1[nH]nc2c1N=C(c1ccccc1Cl)c1cc(F)c(OCCCN3CCOCC3)cc1N2 [IVi] the listed pIC50 is 7.51

* * *

Property: IC50; scope: individual compounds
Tested on: HCT-116
Assay: HCT-116 (colon) cell-based MTT proliferation assay
Conditions: Homo sapiens, HCT-116, 96 h, 4 days post addition of test compound, read-out: Antiproliferative Activity HCT 116 (colon) Assay IC50
// note: answer is a bare numeric in nM

Example compounds with recorded IC50:
[[record]]
compound = "COCCOc1cc2c(cc1OC)Nc1n[nH]c(C)c1N=C2c1ccccc1Cl [IVkk]"
assay_target = "HCT-116"
display_unit = "nM"
reported_result = 509

[[record]]
compound = "COc1cc2c(cc1F)C(c1ccccc1Cl)=Nc1c(n[nH]c1C)N2 [IVa]"
assay_target = "HCT-116"
display_unit = "nM"
reported_result = 1040

[[record]]
compound = "COCCOc1cc2c(cc1OC)C(c1ccccc1Cl)=Nc1c(n[nH]c1C)N2 [IVgg]"
assay_target = "HCT-116"
display_unit = "nM"
reported_result = 197


Next item in the queue.
HCT-116 IC50 of COCCOc1cc2c(cc1F)C(c1ccccc1Cl)=Nc1c(n[nH]c1C)N2 [IVf] is 498
